DC50 listing for selected molecules.
- systemTested: BTK (Homo sapiens)
- Construct: High control=Cell group with added DMSO and without compound, indicating microplate readings without BTK degradation; endogenous in cells; host or cells: TMD-8 cells
- test: Cell Degradation: BTK degradation in TMD-8 cells, HTRF assay
- Type: cell-based
- testParameters: 6 h treatment, IC50 (DC50) of BTK degradation
// units = nM; emit number, no label

molecule	unitAbbrev	DC50
Cc1cc(-c2ncnc3[nH]c(-c4ccc(C5(F)CCN(CC6CCN(c7ccc(N8CCC(=O)NC8=O)cc7)CC6)C5)cn4)cc23)ccc1[C@@H](C)NC(=O)c1nc(C(C)(C)C)no1 (stereo partly shown)	nM	0.99
Cc1cc(-c2ncnc3[nH]c(-c4ccc(N5CCN(CCC6CCN(c7ccc(N8CCC(=O)NC8=O)c(Cl)c7)CC6)CC5)nc4)cc23)ccc1[C@@H](C)NC(=O)c1nc(C(C)(C)C)no1	nM	4.7
Cc1cc(-c2ncnc3[nH]c(-c4ccc(N5CCN(CC6CCN(c7ccc(N8CCC(=O)NC8=O)c(C)c7)CC6)CC5)cn4)cc23)ccc1[C@@H](C)NC(=O)c1noc(C(C)(C)C)n1	nM	0.33
Cc1cc(-c2ncnc3[nH]c(-c4ccc(N5CCN(CC6CCN(c7ccc(N8CCC(=O)NC8=O)c(C)c7)CC6)CC5)nc4)cc23)ccc1[C@@H](C)NC(=O)c1nc(C(C)(C)C)no1	nM	1.5
Cc1cc(-c2ncnc3[nH]c(-c4ccc(C5CC6CCC(C5)N6CC5CCN(c6ccc(N7CCC(=O)NC7=O)cn6)CC5)cc4)cc23)ccc1[C@@H](C)NC(=O)c1nc(C(C)(C)C)no1 (stereo partly shown)	nM	1.34
CC(C)(C)c1nc(C(=O)N[C@@H]2CCc3cc(-c4ncnc5[nH]c(-c6ccc(N7CCN(CC8CCN(c9ccc(N%10CCC(=O)NC%10=O)cc9)CC8)CC7)cc6)cc45)ccc32)no1	nM	2.43
Cc1c([C@@H](C)NC(=O)c2noc(C(C)(C)C)n2)ccc(-c2ncnc3[nH]c(-c4ccc(N5CCN(CC6CCN(c7ccc(N8CCC(=O)NC8=O)cc7)CC6)CC5)cc4)cc23)c1F	nM	1.83
Cc1cc(-c2ncnc3[nH]c(-c4c(C)nn(C5CCN(C(=O)CNCC6CCN(c7ccc(N8CCC(=O)NC8=O)cc7)CC6)CC5)c4C)cc23)ccc1[C@@H](C)NC(=O)c1nc(C(C)(C)C)no1	nM	0.92
Cc1cc(-c2ncnc3[nH]c(-c4ccc(C5(F)CN(CC6CCN(c7ccc(N8CCC(=O)NC8=O)cc7)CC6)C5)cn4)cc23)ccc1[C@@H](C)NC(=O)c1nc(C(C)(C)C)no1	nM	0.98
Cc1cc(-c2ncnc3[nH]c(-c4ccc(N5CCN(CC6CCN(c7ccc(N8CCC(=O)NC8=O)c(C)c7)CC6)CC5)cc4)nc23)ccc1[C@@H](C)NC(=O)c1noc(C(C)(C)C)n1	nM	1.1

Moving on to the next molecule.
input: Item "Cc1cc(-c2ncnc3[nH]c(-c4ccc(N5CCN(CC6CCN(c7ccc(N8CCC(=O)NC8=O)c(C)c7)CC6)CC5)nc4)nc23)ccc1[C@@H](C)NC(=O)c1nc(C(C)(C)C)no1" : provide DC50
output: 0.6

----------
- systemTested: BTK (Homo sapiens)
- Construct: High control=Cell group with added DMSO and without compound, indicating microplate readings without BTK degradation; endogenous in cells; host or cells: TMD-8 cells
- test: Cell Degradation: BTK degradation in TMD-8 cells, HTRF assay
- Assay type: cell-based
- testParameters: 6 h treatment, IC50 (DC50) of BTK degradation
propertyMeasured: DC50 (nM)
// units = nM; emit number, no label

In [3]: df
Out[3]:
                                 itemsmiles  testvalue
0  Cc1cc(-c2ncnc3[nH]c(-c4ccc(C5CCN(CC6CCN(c7ccc(N8CCC(=O)NC8=O)cc7)CC6)CC5)cc4)cc23)ccc1CNC(=O)c1cn(C(C)(C)C)nn1       0.63
1  Cc1cc(-c2ncnc3[nH]c(-c4ccc(C5CCN(CCC6CCN(c7ccc(N8CCC(=O)NC8=O)c(C)c7)CC6)CC5)cc4)cc23)ccc1CNC(=O)c1nc(C(C)(C)C)no1        2.3
2  Cc1cc(-c2ncnc3[nH]c(-c4ccc(C5CN(CC6CCN(c7ccc(N8CCC(=O)NC8=O)cc7)CC6)C5)cc4)cc23)ccc1[C@@H](C)NC(=O)c1nc(C(C)(C)C)no1       1.04
3  Cc1cc(-c2ncnc3[nH]c(-c4ccc(N5CCN(CC6CCN(c7ccc(N8CCC(=O)NC8=O)cc7)CC6)CC5)nc4)cc23)ccc1[C@@H](C)NC(=O)c1nc(C(C)(C)C)no1       0.72
4  Cc1c(NC(=O)c2ccc(C(C)(C)O)cc2F)cc(F)cc1-c1ncnc2[nH]c(-c3ccc(C4CCN(CC5CCN(c6ccc(N7CCC(=O)NC7=O)cc6)CC5)CC4)cc3)cc12        1.5
5  Cc1cc(-c2ncnc3[nH]c(-c4ccc(C5CCN(CC6CCN(c7ccc(N8CCC(=O)NC8=O)cc7)CC6)CC5)cc4)cc23)ccc1CNC(=O)c1nc(C(C)(C)C)no1       0.54

input: Item "Cc1cc(-c2ncnc3[nH]c(-c4ccc(C5=CCN(CC6CCN(c7ccc(N8CCC(=O)NC8=O)cc7)CC6)C5)nc4)cc23)ccc1[C@@H](C)NC(=O)c1nc(C(C)(C)C)no1" : provide DC50
output: 0.93

input: Item "Cc1cc(-c2ncnc3[nH]c(-c4ccc(N5CCN(CC6CCN(c7ccc(N8CCC(=O)NC8=O)cc7)CC6)CC5)cc4)cc23)ccc1CNC(=O)c1csc(C(C)(C)C)n1" : provide DC50
output: 5.3

input: Item "C[C@@H](NC(=O)c1nc(C(C)(C)C)no1)c1ccc(-c2ncnc3[nH]c(-c4ccc(N5CCN(CC6CCN(c7ccc(N8CCC(=O)NC8=O)cc7)CC6)CC5)cn4)cc23)cc1F" : provide DC50
output: 0.79

input: Item "Cc1cc(-c2ncnc3[nH]c(-c4ccc(N5CCN(CC6CCN(c7ccc(N8CCC(=O)NC8=O)cc7)CC6)CC5)cc4)cc23)ccc1CNC(=O)c1cnc(C(C)(C)C)s1" : provide DC50
output: 1.8

----------
DC50 listing for selected compounds.
- systemTested: BTK (Homo sapiens, UniProt Q06187)
- Construct: High control=Cell group with added DMSO and without compound, indicating microplate readings without BTK degradation; endogenous in cells; host or cells: TMD-8 cells
- Sequence (Q06187 whole entry): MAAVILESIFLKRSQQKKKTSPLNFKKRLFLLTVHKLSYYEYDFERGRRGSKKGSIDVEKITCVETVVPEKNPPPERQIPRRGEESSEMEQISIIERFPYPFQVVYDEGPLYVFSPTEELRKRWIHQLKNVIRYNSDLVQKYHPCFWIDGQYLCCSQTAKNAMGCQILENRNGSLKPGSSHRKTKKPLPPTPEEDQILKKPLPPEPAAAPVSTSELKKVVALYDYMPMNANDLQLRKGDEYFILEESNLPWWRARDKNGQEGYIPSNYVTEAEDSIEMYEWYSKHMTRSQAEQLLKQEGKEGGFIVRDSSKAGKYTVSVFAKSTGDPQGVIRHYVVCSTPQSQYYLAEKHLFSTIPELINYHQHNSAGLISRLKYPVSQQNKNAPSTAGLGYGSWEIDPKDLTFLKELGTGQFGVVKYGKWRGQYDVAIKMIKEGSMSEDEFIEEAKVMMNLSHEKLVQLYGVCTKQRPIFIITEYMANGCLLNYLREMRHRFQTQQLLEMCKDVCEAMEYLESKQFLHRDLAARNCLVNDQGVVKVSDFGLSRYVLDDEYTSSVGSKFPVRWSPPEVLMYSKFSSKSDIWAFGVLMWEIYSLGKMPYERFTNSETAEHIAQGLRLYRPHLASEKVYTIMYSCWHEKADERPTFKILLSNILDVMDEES
- test: Cell Degradation: BTK degradation in TMD-8 cells, HTRF assay
- Type: cell-based
- testParameters: 6 h treatment, IC50 (DC50) of BTK degradation
// units = nM; emit number, no label

See these solved cases before continuing.
itemSmiles	systemTested	unitAbbrev	DC50
Cc1c([C@@H](C)NC(=O)c2noc(C(C)(C)C)n2)ccc(-c2ncnc3[nH]c(-c4ccc(N5CCN(CC6CCN(c7ccc(N8CCC(=O)NC8=O)cc7)CC6)CC5)nc4)cc23)c1F	BTK (Homo sapiens, UniProt Q06187)	nM	1.24
Cc1nn(C2CCN(CC3CCN(c4ccc(N5CCC(=O)NC5=O)cc4)CC3)CC2)c(C)c1-c1cc2c(-c3cc(CO)c([C@@H](C)NC(=O)c4nc(C(C)(C)C)no4)cc3F)ncnc2[nH]1	BTK (Homo sapiens, UniProt Q06187)	nM	0.5

Moving on to the next compound.
input: Item "Cc1cc(-c2ncnc3[nH]c(-c4ccc(N5CCN(CC6CCN(c7ccc(N8CCC(=O)NC8=O)cc7)CC6)C[C@H]5C)nc4)cc23)ccc1[C@@H](C)NC(=O)c1nc(C(C)(C)C)no1" : provide DC50
output: 3

----------
- systemTested: BTK (Homo sapiens)
- Construct: High control=Cell group with added DMSO and without compound, indicating microplate readings without BTK degradation; endogenous in cells; host or cells: TMD-8 cells
- test: Cell Degradation: BTK degradation in TMD-8 cells, HTRF assay
- Format: cell-based
- testParameters: 6 h treatment, IC50 (DC50) of BTK degradation
propertyMeasured: DC50 (nM)
// units = nM; emit number, no label

See these solved cases before continuing.
compound	DC50 [nM]
C[C@@H](NC(=O)c1nc(C(C)(C)C)no1)c1ccc(-c2ncnc3[nH]c(-c4ccc(N5CCN(CC6CCN(c7ccc(N8CCC(=O)NC8=O)cc7)CC6)C[C@@H]5C)nc4)cc23)cc1F [Example 80]	4.3
Cc1cc(-c2ncnc3[nH]c(-c4ccc(N5CCN(CC6CCN(c7ccc(N8CCC(=O)NC8=O)cc7)CC6)CC5)cn4)cc23)ccc1[C@@H](C)NC(=O)c1nc(C(C)(C)C)no1 [Example 19]	0.72
Cc1cc(-c2ncnc3[nH]c(-c4nn(C)c(C5=CCN(CC6CCN(c7ccc(N8CCC(=O)NC8=O)cc7)CC6)CC5)c4C)cc23)ccc1[C@@H](C)NC(=O)c1nc(C(C)(C)C)no1 [Example 174]	1.51

input: Item Cc1cc(-c2ncnc3[nH]c(-c4ccc(N5CCN(CC6CCN(c7ccc(N8CCC(=O)NC8=O)cc7)CC6)CC5)nc4)cc23)ccc1[C@@H](C)NC(=O)c1cc(C(C)(C)C)on1 [Example 117] : provide DC50
output: 3.72
